Assay: Cmax in Swiss albino mouse at 10 mg/kg, ip
Assay type: ADME, organism-based
Parameters: dose 10 mg/kg, route intraperitoneal
Settings: in vivo
endpoint_label: Cmax (ng/mL)
Answers are plain numbers, in ng/mL.

Record summary for `COc1ccc(-c2cc3cc(CNc4ccc(C)cc4)cc(C)c3oc2=O)cc1` : reported Cmax = 256

###

Assay: Clearance in Swiss albino mouse at 1 mg/kg, iv
Format: ADME, organism-based
Set-up: dose 1 mg/kg, route intravenous
Details: in vivo
endpoint_label: clearance (L/h/kg)
Numbers only, in L/h/kg.

Item: `COc1ccc(-c2cc3cc(CNc4ccc(C)cc4)cc(C)c3oc2=O)cc1` | clearance: 4.04
